# key: entry, value: GI50
# Tested on: UO-31
# ASSAY METHOD TEXT: NCI tumour cell line growth inhibition, 48 h
Calls of active or inactive are those of the source. Cut-off read from the data, not from the text of the source: active = GI50 up to about 1.1 µM and inactive = higher.

- COMPOUND SMILES: "CCOC(=O)c1ccc(C(=O)OCC)n1-c1cc2cc(c1)CSCc1cc(cc(-n3c(C(=O)OCC)ccc3C(=O)OCC)c1)CSC2"
  GI50: "> 10 µM (inactive)"
- COMPOUND SMILES: "Oc1cccc(-c2nc3ccccc3s2)c1"
  GI50: "26.1 µM (inactive)"
- COMPOUND SMILES: "O=C(/C=C/c1ccc(Cl)c(Cl)c1)c1cccc2ccccc12"
  GI50: "19.6 µM (inactive)"
- COMPOUND SMILES: "O=C1Oc2ccccc2C(=O)/C1=C\\NC(=S)c1ccncc1"
  GI50: "45.7 µM (inactive)"
- COMPOUND SMILES: "O=C(O)C(=C\\c1ccc2c(c1)OCO2)/C(=C/c1ccc2c(c1)OCO2)C(=O)O"
  GI50: "> 100 µM (inactive)"
